This section presents molecules with their documented pIC50 values.
test system: 616215-338-R-J1-PDC tumor spheroids, viability; experiment: Anticancer human tumor 616215-338-R-J1-PDC patient-derived colon adenocarcinoma cell line growth inhibition [GQUAD]; settings: curve of first compound; second compound 1 µM; spheroids with HUVEC and MSC;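 further: spheroids exposed to agents for 7 days before readout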
pIC50: −log10 of the molar value.

Some solved entries appear below for comparison.
COc1cc(C2c3cc4c(cc3C(OC3OC5COC(C)OC5C(O)C3O)C3COC(=O)C23)OCO4)cc(OC)c1O (stereo not drawn) + Cc1cnc(CNC(=O)c2c(=O)c3ccc(N4CCCN(C)CC4)nc3n3c2sc2ccccc23)cn1: > 7.50
Cc1cccc(N(C)C(=O)C2C(O)CCN2c2nc(C)cc(C(F)(F)F)c2C#N)c1 (stereo not drawn) + CN(C)c1ccc(Nc2c3ccc(NC(=O)CCN4CCCC4)cc3nc3cc(NC(=O)CCN4CCCC4)ccc23)cc1: < 5.00

# evaluate next
Answer with reported pIC50 of Nc1ccn(C2OC(CO)C(O)C2(F)F)c(=O)n1 (stereo not drawn) + CN(C)c1ccc(Nc2c3ccc(NC(=O)CCN4CCCC4)cc3nc3cc(NC(=O)CCN4CCCC4)ccc23)cc1 > 7.50
